Data provenance is patent EP0819688A1.

Tested on: PDE IV
Assay: Inhibition of PDE IV activity (method of Bauer and Schwabe, adapted to microtiter plates)
Format: biochemical
Conditions: Hemmung der PDE IV-Aktivität
readout: PDE4 -logIC50

The cases that follow already have their PDE4 -logIC50 on record.
COc1ccc(CC(C#N)c2ccncc2)c2cc(C3CCCC3)oc12 (racemic); 6,56
COc1ccc(/C=C/c2ccncc2)c2cc(C3CCCC3)oc12; 6,77
COc1ccc(C=C(C#N)c2ccncc2)c2cc(C(C)C)oc12 (mixture of isomers); 6,64
COc1ccc(C(O)Cc2ccncc2)c2cc(C3CCCC3)oc12 (racemic); 6,45
COc1ccc(CC(C#N)c2cccnc2)c2cc(C3CCCC3)oc12 (racemic); 6,99

Exam item: Any idea what its PDE4 -logIC50 is? The compound is `COc1ccc(/C=C(\C#N)c2cccnc2)c2cc(C3CCCC3)oc12`
Marked response: 6,51

Exam item: Would you mind telling me what PDE4 -logIC50 value was observed for `COc1ccc(/C=C(\C#N)c2ccncc2)c2cc(C3CCCC3)oc12` ?
Marked response: 6,29

Exam item: // query PDE4 -logIC50 value for entry COc1ccc(CC(C#N)c2ccncc2)c2cc(C(C)C)oc12 (racemic)
Marked response: 7,26

----------
Tested on: PDE IV
Experiment: Inhibition of PDE IV activity (method of Bauer and Schwabe, adapted to microtiter plates)
Format: biochemical
Details: Hemmung der PDE IV-Aktivität
readout: PDE4 -logIC50

Consider the worked cases shown below.
COc1ccc(C(O)Cc2ccncc2)c2cc(C(C)C)oc12 (racemic) [Verbindung 2]; 6,86
COc1ccc(/C=C/c2ccncc2)c2cc(C(C)C)oc12 [Verbindung 4]; 7,21
COc1ccc(CCc2ccncc2)c2cc(C(C)C)oc12 [Verbindung 6]; 8,22

Exam item: Recorded PDE4 -logIC50 of COc1ccc(CCc2ccncc2)c2cc(C3CCCC3)oc12 [Verbindung 5] , please.
Marked response: 7,97
